- experimentSummary: Selectivity index, ratio of CC50 for human MT4 cells to EC50 for HIV1 3B
- Type: toxicity, cell-based
- experimentalParameters: read-out: Ratio CC50/EC50
endpoint: selectivity ratio

O=C1c2ccccc2C(=O)N1CCOC(=S)Nc1ccc(Cl)c(C(F)(F)F)c1: 10.5
CC(C)(C)c1ccc2c(c1)C(=O)N(CCOC(=S)Nc1ccc(Cl)cc1)C2=O: 45.8
Cc1ccc(NC(=S)OCCNC(=O)c2ccccc2C(=O)O)cc1Cl: > 23.2

Ask: Data request, read-out selectivity ratio, for `Cc1ccc2c(c1)C(=O)N(CCOC(=S)Nc1ccc(I)cc1)C2=O`
Reply: 8900

Ask: Given `C[C@H](COC(=S)Nc1ccc(Cl)cc1)N1C(=O)c2ccccc2C1=O` , state its recorded selectivity ratio.
Reply: 4800

Ask: For `Cc1ccc(NC(=S)OC[C@H](C)NC(=O)c2ccccc2C(=O)O)cc1` , what is its reported selectivity ratio?
Reply: > 7.2

Ask: What value of selectivity ratio has been recorded for this entry: `O=C(O)c1ccccc1C(=O)NCCOC(=S)Nc1ccc(F)cc1F`
Reply: > 26.3

Ask: // selectivity ratio lookup, key: `CC(C)(C)CC(C)(C)NC(=S)OCCN1C(=O)c2ccccc2C1=O`
Reply: > 1.7

Ask: selectivity ratio for `Cc1cc(Br)cc(C)c1NC(=S)OCCN1C(=O)c2ccccc2C1=O` ?
Reply: > 11.1

###

- Tested on: Human immunodeficiency virus 1
- experimentSummary: Antiviral activity against HIV1 3B Y181C resistant mutant in human MT4 cells assessed as protection against viral induced cytopathogenicity by MTT assay
- Format: functional, organism-based
- experimentalParameters: Human immunodeficiency virus 1, 3B
endpoint: log10(EC50) (log10 of the value in µM)
On a log10 scale: recorded EC50, unit µM.

C[C@H](COC(=S)Nc1ccc(Cl)cc1)N1C(=O)c2ccccc2C1=O: 0.11

Ask: Any idea what its log10(EC50) is? The compound is `C[C@H](COC(=S)Nc1ccc(Cl)cc1)NC(=O)c1ccccc1C(=O)O`
Reply: 1.26

Ask: Consider the compound shown here: O=C1Nc2ccc(Cl)cc2[C@@](C#CC2CC2)(C(F)(F)F)O1 [EFAVIRENZ] What is its recorded log10(EC50)?
Reply: -1.70

Ask: Consider the compound `Cc1ccc2c(c1)C(=O)N(CCOC(=S)Nc1ccc(Cl)c([N+](=O)[O-])c1)C2=O` and give its measured log10(EC50).
Reply: 1.48

Ask: Which log10(EC50) is listed for `Cc1ccc2c(c1)C(=O)N(CCOC(=S)Nc1ccc(C#N)cc1)C2=O` ?
Reply: 0.65

Ask: Sample `Cc1ccc2c(c1)C(=O)N(CCOC(=S)Nc1ccc(I)cc1)C2=O` — what was its log10(EC50)?
Reply: 0.95

Ask: Given the entry Cc1ccc2c(c1)C(=O)N(C(C)COC(=S)Nc1ccc(Cl)cc1)C2=O (racemic) , report its measured log10(EC50).
Reply: 0.60

Ask: Given `CCc1ccc(NC(=S)OCCN2C(=O)c3ccc(C)cc3C2=O)cc1` , state its recorded log10(EC50).
Reply: 1.20

Ask: Which measured log10(EC50) value corresponds to Cc1ccc(NC(=S)OCC(C)N2C(=O)c3ccc(C)cc3C2=O)cc1 (racemic) ?
Reply: 1.08

###

Below, each entry is listed alongside its reported CC50.
- experimentSummary: Cytotoxicity against mock-infected human MT4 cells by MTT assay
- Format: cell-based

Example results:
O=C(O)c1ccccc1C(=O)NCCOC(=S)Nc1c(F)cccc1F: > 100 µM
C[C@@H](COC(=S)Nc1ccc(Cl)cc1)N1C(=O)c2ccccc2C1=O: 84 µM
COc1ccc(CCNC(=S)OCCNC(=O)c2ccccc2C(=O)O)cc1OC: 100 µM
CCCCNC(=S)OCCN1C(=O)c2ccccc2C1=O: > 100 µM
COc1ccc(C)cc1NC(=S)OCCNC(=O)c1ccccc1C(=O)O: > 100 µM

Ask: Quick one: CC50 of `O=C1c2ccccc2C(=O)N1CCOC(=S)Nc1ccc([N+](=O)[O-])cc1Cl` ?
Reply: > 100 µM

Ask: For the compound shown here, `O=C1c2ccccc2C(=O)N1CCOC(=S)Nc1c(F)cccc1F` , give the reported CC50.
Reply: > 100 µM

Ask: # lookup: CC50 of Cc1ccc2c(c1)C(=O)N(C(C)COC(=S)Nc1ccc(Cl)cc1)C2=O (racemic)
Reply: 34 µM

Ask: Can you look up the measured CC50 of `O=C1c2ccccc2C(=O)N1CCOC(=S)Nc1ccc(Cl)cc1Cl` for me?
Reply: > 100 µM

###

# CC50 per record follows
- experimentSummary: Cytotoxicity against mock-infected human MT4 cells by MTT assay
- Format: cell-based

Please review the entries below; each comes with its answer.
O=C1c2ccccc2C(=O)N1CCOC(=S)Nc1c(Cl)cc(Cl)cc1Cl: > 100 µM
O=C1c2ccccc2C(=O)N1CCOC(=S)Nc1cccc(Cl)c1Cl: > 100 µM
O=C(O)c1ccccc1C(=O)NCCOC(=S)Nc1c(F)c(F)cc(F)c1F: > 100 µM

# ---- query compound ----
Ask: Recorded CC50 of `O=C1c2ccccc2C(=O)N1CCOC(=S)Nc1ccc(F)cc1F` , please.
Reply: > 100 µM

###

- experimentSummary: Cytotoxicity against mock-infected human MT4 cells by MTT assay
- Format: cell-based
endpoint: CC50

Cc1cc(Cl)ccc1NC(=S)OCCN1C(=O)c2ccccc2C1=O: > 100 µM
Cc1ccc(NC(=S)OCC(C)N2C(=O)c3ccc(C)cc3C2=O)cc1 (racemic): 41 µM
CCc1ccc(NC(=S)OCCN2C(=O)c3ccc(C)cc3C2=O)cc1: 43 µM
COc1ccc(Cl)cc1NC(=S)OCCN1C(=O)c2ccccc2C1=O: > 100 µM
Cc1ccc(NC(=S)OCCN2C(=O)c3ccccc3C2=O)cc1Cl: > 100 µM

# context switch: different compound, same CC50
Ask: I am curious: what CC50 value has been reported for `O=C1c2ccccc2C(=O)N1CCOC(=S)Nc1cc(Cl)ccc1Cl` ?
Reply: > 100 µM

###

Each entry below carries its recorded CC50.
- experimentSummary: Cytotoxicity against mock-infected human MT4 cells by MTT assay
- Type: cell-based

Consider the following illustrative entries.
O=C1c2ccccc2C(=O)N1CCOC(=S)NCc1ccccc1: > 100 µM
O=C1c2ccccc2C(=O)N1CCOC(=S)Nc1cc(F)ccc1F: > 100 µM
Cc1ccc(NC(=S)OCCN2C(=O)c3ccc(C)cc3C2=O)cc1: 69 µM
O=C(O)c1ccccc1C(=O)NCCOC(=S)Nc1ccc(F)cc1F: > 100 µM
CC(C)(C)c1ccc2c(c1)C(=O)N(CCOC(=S)Nc1ccc(Cl)cc1)C2=O: 55 µM
Cc1ccc(NC(=S)OCCNC(=O)c2ccccc2C(=O)O)c(C)c1: > 100 µM
O=C1c2ccccc2C(=O)N1CCOC(=S)Nc1ccc(Cl)c(C(F)(F)F)c1: 84 µM
O=C1c2ccccc2C(=O)N1CCOC(=S)Nc1cc(Cl)cc(Cl)c1: > 100 µM

Ask: Fill blank: measured CC50 of the compound `Cc1cc(Br)cc(C)c1NC(=S)OCCN1C(=O)c2ccccc2C1=O` is ____.
Reply: > 100 µM

Ask: Which CC50 reading was recorded for the compound `COc1ccc(NC(=S)OCCN2C(=O)c3ccccc3C2=O)cc1OC` ?
Reply: > 100 µM

Ask: I have this compound here, `CC(=O)c1ccc(NC(=S)OCCN2C(=O)c3ccc(C)cc3C2=O)cc1` , and I need its recorded CC50.
Reply: > 100 µM

###

- experimentSummary: Selectivity index, ratio of CC50 for human MT4 cells to EC50 for HIV1 3B
- Format: toxicity, cell-based
- experimentalParameters: read-out: Ratio CC50/EC50
Listing of recorded selectivity ratio by entry.

As a guide, the following entries are already answered.
Cc1ccc(NC(=S)OCCNC(=O)c2ccccc2C(=O)O)c(C)c1: > 1.9
O=C(O)c1ccccc1C(=O)NCCOC(=S)Nc1ccc(Cl)c(Cl)c1Cl: > 2.3

Ask: Endpoint output: selectivity ratio of `Cc1ccc(NC(=S)OCCN2C(=O)c3ccc(C)cc3C2=O)cc1` . Value?
Reply: 3450

Ask: selectivity ratio lookup needed for `Cc1ccc(NC(=S)OC[C@@H](C)NC(=O)c2ccccc2C(=O)O)cc1` , thanks.
Reply: > 43.5

Ask: Record request: selectivity ratio value, item `C[C@H](COC(=S)Nc1ccc(Cl)cc1)NC(=O)c1ccccc1C(=O)O`
Reply: > 333

###

Below, each entry is listed alongside its reported CC50.
- experimentSummary: Cytotoxicity against mock-infected human MT4 cells by MTT assay
- Assay type: cell-based

Ask: Returns the measured CC50 for the input molecule. Input: `CC(C)(C)CC(C)(C)NC(=S)OCCN1C(=O)c2ccccc2C1=O`
Reply: > 100 µM

Ask: Reported CC50 for `O=C1c2ccccc2C(=O)N1CCOC(=S)NC1CCCC1` : what is it?
Reply: > 100 µM

Ask: Entry under review: `Cc1ccc2c(c1)C(=O)N(CCOC(=S)Nc1ccc(I)cc1)C2=O` . Reported CC50?
Reply: 89 µM

Ask: What does the record list as CC50 for `Cc1ccc2c(c1)C(=O)N(CCOC(=S)Nc1ccc(C#N)cc1)C2=O` ?
Reply: 57 µM

Ask: Give the measured CC50 of `O=C1c2ccccc2C(=O)N1CCOC(=S)Nc1cc(F)cc(F)c1` .
Reply: > 100 µM

Ask: Recorded CC50 for `C=CCNC(=S)OCCN1C(=O)c2ccccc2C1=O` , please?
Reply: > 100 µM

Ask: Give its CC50 value. Item: `Cc1ccc(NC(=S)OC[C@@H](C)NC(=O)c2ccccc2C(=O)O)cc1`
Reply: > 100 µM

Ask: Quick one: CC50 of `O=C1c2ccccc2C(=O)N1CCOC(=S)Nc1c(F)c(F)cc(F)c1F` ?
Reply: > 100 µM

Ask: I'd like to know its CC50. The molecule in question is `Cc1ccc2c(c1)C(=O)N(CCOC(=S)Nc1ccc(Cl)c(C(F)(F)F)c1)C2=O`
Reply: 43 µM

Ask: Given the molecule `Cc1ccc(Cl)cc1NC(=S)OCCN1C(=O)c2ccccc2C1=O` , what is its reported CC50?
Reply: > 100 µM

Ask: # CC50 lookup, item `O=C1c2ccccc2C(=O)N1CCOC(=S)NC1CCCCCCC1`
Reply: > 100 µM
